Target: CCR2 (Homo sapiens, UniProt P41597)
Construct: expressed in transfected cells
Sequence (P41597 whole entry, species assumed): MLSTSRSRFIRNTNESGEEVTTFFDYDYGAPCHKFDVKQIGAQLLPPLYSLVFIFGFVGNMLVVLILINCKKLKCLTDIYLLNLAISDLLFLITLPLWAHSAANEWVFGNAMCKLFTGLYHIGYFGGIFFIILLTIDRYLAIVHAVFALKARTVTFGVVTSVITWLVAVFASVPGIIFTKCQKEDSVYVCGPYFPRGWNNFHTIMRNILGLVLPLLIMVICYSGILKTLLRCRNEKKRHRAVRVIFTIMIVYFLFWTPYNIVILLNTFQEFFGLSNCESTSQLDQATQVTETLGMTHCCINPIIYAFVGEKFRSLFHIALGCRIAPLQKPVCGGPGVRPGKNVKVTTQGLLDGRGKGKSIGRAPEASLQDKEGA
Assay: compound-induced calcium activity on the FLIPR Tetra in HEK-Gqi5 cells stably expressing CCR2
Type: cell-based
Details: HEK-Gqi5 cells stably expressing CCR2; calcium activity, FLIPR Tetra; read-out: CCR2 IC50
Description: HEK-Gqi5 cells stably expressing CCR2 were cultured in DMEM high glucose, 10% FBS, 1% PSA, 400 μg/ml geneticin and 50 μg/ml hygromycin. Appropriate positive control chemokines (MCP-1, MIP1A or RANTES) was used as the positive control agonist for screening compound-induced calcium activity assayed on the FLIPR^Tetra. The drug plates were prepared in 384-well microplates using the EP3 and the MultiPROBE robotic liquid handling systems. Compounds were synthesized and tested for CCR2 activity.
# pIC50 annotations
Convention used: pIC50 is expressed as -log10 of the molar concentration.

INSERT INTO measurements (smiles_notation, recorded_value) VALUES
  ('O=C(Cc1ccccc1)c1ccc(Cl)cc1NS(=O)(=O)c1cc2ccccc2o1', 6.74),
  ('O=C(Nc1ccccc1)c1ccc(Cl)cc1NS(=O)(=O)c1cc2ccccc2o1', 6.48),
  ('COC(=O)c1ccccc1Oc1ccc(Cl)cc1NS(=O)(=O)c1cc2ccccc2o1', 5.99),
  ('O=S(=O)(Nc1cc(Cl)ccc1OCc1ccccc1)c1cc2ccccc2o1', 5.79),
  ('O=S(=O)(Nc1cc(F)ccc1S(=O)(=O)c1ccccc1)c1cc2ccccc2o1', 5.58);

Request: // lookup pIC50 for COC(=O)c1ccc(Cl)cc1NS(=O)(=O)c1cc2ccccc2o1
Response: 5.86

* * *

molecular target: CCR2 (Homo sapiens, UniProt P41597); construct: expressed in transfected cells; assay: compound-induced calcium activity on the FLIPR Tetra in HEK-Gqi5 cells stably expressing CCR2; format: cell-based; conditions: HEK-Gqi5 cells stably expressing CCR2; calcium activity, FLIPR Tetra; read-out: CCR2 IC50
outcome.measure: pIC50
Please keep in mind that pIC50 is minus log10 of the molar concentration; only the number is needed.

Example results:
INSERT INTO assay_data (compound, target_system, outcome_measure, recorded_value) VALUES
  ('C#Cc1ccc(Cl)cc1NS(=O)(=O)c1cc2ccccc2o1', 'CCR2 (Homo sapiens, UniProt P41597)', 'pIC50', 6.93),
  ('CCOc1ccc(Cl)cc1NS(=O)(=O)c1cc2ccccc2o1', 'CCR2 (Homo sapiens, UniProt P41597)', 'pIC50', 5.78),
  ('O=C(O)c1ccccc1COc1ccc(Cl)cc1NS(=O)(=O)c1cc2ccccc2o1', 'CCR2 (Homo sapiens, UniProt P41597)', 'pIC50', 7.57);

Request: Can you look up the measured pIC50 of O=C(O)c1ccccc1Oc1ccc(Cl)cc1NS(=O)(=O)c1cc2ccccc2o1 for me?
Response: 7.22

Request: Thanks! And O=S(=O)(Nc1cc(Cl)ccc1[S+]([O-])c1ccccc1)c1cc2ccccc2o1 (stereo not drawn) ?
Response: 8.22

Request: What about this compound? O=S(=O)(Nc1cc(Cl)ccc1OC(F)(F)F)c1cc2ccccc2o1
Response: 6.71

* * *

Recorded IC50 for the following molecules
Molecular target: CCR2 (Homo sapiens, UniProt P41597)
Construct: expressed in transfected cells
Assay: compound-induced calcium activity on the FLIPR Tetra in HEK-Gqi5 cells stably expressing CCR2
Format: cell-based
Settings: HEK-Gqi5 cells stably expressing CCR2; calcium activity, FLIPR Tetra; read-out: CCR2 IC50
Protocol: HEK-Gqi5 cells stably expressing CCR2 were cultured in DMEM high glucose, 10% FBS, 1% PSA, 400 μg/ml geneticin and 50 μg/ml hygromycin. Appropriate positive control chemokines (MCP-1, MIP1A or RANTES) was used as the positive control agonist for screening compound-induced calcium activity assayed on the FLIPR^Tetra. The drug plates were prepared in 384-well microplates using the EP3 and the MultiPROBE robotic liquid handling systems. Compounds were synthesized and tested for CCR2 activity.
Write down the numeric answer in nM and omit the unit.

Example entries begin here.
INSERT INTO measurements (molecule, recorded_value) VALUES
  ('O=S(=O)(Nc1cc(Cl)ccc1S(=O)(=O)c1ccccc1)c1cc2ccccc2o1 [Compound 13]', 1970),
  ('Cc1ncccc1Oc1ccc(Cl)cc1NS(=O)(=O)c1cc2ccccc2o1 [Compound 9]', 365);

Now turn to the next molecule.
Request: Hi! What's the reported IC50 for O=S(=O)(Nc1cc(F)ccc1[S+]([O-])c1ccccc1)c1cc2ccccc2o1 (stereo not drawn) [Compound 28] on CCR2 (Homo sapiens, UniProt P41597)?
Response: 317
